Test system: PRKX
Conditions: concentration: 1 μM,replicates: in singlicate; n = 1;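 also: KINOMEscan kinase panel screen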
Consider the following compounds and their measured %Inh readings.
Your answer is read as %, so omit the unit and give the number.

compound=Cc1n[nH]c2cc(Nc3ccnc(Nc4cccc(CN5CCOCC5)c4)n3)ccc12 unit=% numericreadout=0

Look up %Inh with PRKX for this compound: CCOC(=O)N1CCC(n2cnc(-c3ccc(F)cc3)c2-c2ccnc(N)n2)CC1 8

// query: CC(C(=O)NC1CCN(c2ccnc(Nc3ccc(F)cc3)n2)C1)c1ccc(Cl)cc1 (stereo not drawn) 6

// query: CS(=O)(=O)c1cccc(CNc2nc(Nc3ccc4c(c3)[C@@H]3C[C@@H]4CNC3=O)ncc2C(F)(F)F)c1 0

// query: COc1cc2ncn(-c3cc(OCC4CCCCC4)c(C(N)=O)s3)c2cc1OC 10

// query: NC(=O)Nc1sc(-c2ccc(F)cc2)cc1C(N)=O 0

// query: c1ccc(Oc2ccc(Nc3ccnc4ccc(-c5ccccn5)cc34)cc2)cc1 12

// query: CN1CCN(CCNc2nc3cc(Oc4ccc(NC(=O)Nc5cc(C(F)(F)F)ccc5F)cc4)ccc3[nH]2)CC1.Cl.Cl 0

// query: CCCC(=O)Nc1n[nH]c2ncccc12 0

====

System: LCK
Details: concentration: 1 μM,replicates: in singlicate; n = 1
Consider the following compounds and their measured %Inh readings.
Your answer is read as %, so omit the unit and give the number.

entrysmiles=CS(=O)(=O)c1cccc(CNc2nc(Nc3ccc4c(c3)[C@@H]3C[C@@H]4CNC3=O)ncc2C(F)(F)F)c1 experimentalendpoint=%Inh numericreadout=0
entrysmiles=CCn1c(-c2nonc2N)nc2cncc(CNC3CCNCC3)c21.Cl experimentalendpoint=%Inh numericreadout=0

Suppose we examine the compound C[C@@H]1CNc2c(sc3ccc4nc(-c5ccncc5)ccc4c23)C(=O)N1 ; what %Inh value has been reported? 13

// query: O=C(Nc1ccccc1)c1cccc(Oc2ccc3nccn3n2)c1 13

// query: COc1cccc(OC)c1C(=O)Nc1cccc(-c2nn3ccccc3c2-c2ccnc(Nc3cccc(F)c3)n2)c1 24

// query: CCCC(=O)Nc1n[nH]c2ncccc12 14

// query: c1ccc(Oc2ccc(Nc3ccnc4ccc(-c5ccccn5)cc34)cc2)cc1 83

====

Tested on: PKN2
Conditions: concentration: 1 μM,replicates: in singlicate; n = 1
experimentalEndpoint: %Inh (%)
Your answer is read as %, so omit the unit and give the number.

entrysmiles=Cl.c1ccc(Oc2ccc(Nc3ccnc4cc(-c5ccc(CN6CCNCC6)o5)ccc34)cc2)nc1 system=PKN2 experimentalendpoint=%Inh unit=% numericreadout=0
entrysmiles=NC(=O)Nc1sc(-c2ccc(F)cc2)cc1C(N)=O system=PKN2 experimentalendpoint=%Inh unit=% numericreadout=54

Suppose we examine the compound O=C1NCCc2[nH]c(-c3ccncc3)cc21 ; what %Inh value has been reported? 80

// query: Cc1ccc2c(-c3ccnc(Nc4ccc(C(F)(F)F)cc4)n3)cnn2n1 0

// query: COC(=O)Nc1nc2cc(Oc3ccc(NC(=O)Nc4cc(C(F)(F)F)ccc4Cl)cc3)ccc2[nH]1.Cl 0

// query: COc1cccc(OC)c1C(=O)Nc1cccc(-c2nn3ccccc3c2-c2ccnc(Nc3cccc(F)c3)n2)c1 13

// query: NC(=O)c1ccc(-c2cc3ncnc(SCC(=O)O)c3s2)cc1 4

// query: O=C(Nc1ccc(Oc2ccc3nc(NC(=O)C4CC4)cn3n2)c(F)c1)c1cccn(-c2ccccc2)c1=O 48

====

Tested on: CSNK1G1
Conditions: concentration: 1 μM,replicates: in singlicate; n = 1
Rule: True for %Inh not less than 20%, False for anything less.

These solved cases illustrate the format of a correct answer.
compound="CCNCC(Cc1ccccc1)NC(=O)c1cc(Br)c(-c2ccnc3[nH]ccc23)s1.Cl.Cl (centres unmarked)" label=False
compound=C[C@@H]1CNc2c(sc3ccc4nc(-c5ccc(O)cc5)ccc4c23)C(=O)N1 label=True
compound="COC(=O)c1cccc(NC(=O)NC2CCN(c3ccnc(Nc4cc(OC)c(OC)c(OC)c4)n3)C2)c1 (centres unmarked)" label=False
compound=Cn1cc(-c2cccc3c(N)c(C(N)=O)nnc23)cn1 label=False
compound="N#Cc1cccc(C(=O)NC2CCN(c3ccnc(Nc4ccc(F)cc4)n3)C2)c1 (centres unmarked)" label=False

Confirm if %Inh reported for the compound CS(=O)(=O)c1cccc(CNc2nc(Nc3ccc4c(c3)[C@@H]3C[C@@H]4CNC3=O)ncc2C(F)(F)F)c1 is 20% or above. False

// query: O=c1[nH]cc(-c2ccc(O)cc2)c2sc(-c3ccncc3)cc12 True

// query: Cc1n[nH]c2cc(Nc3ccnc(Nc4cccc(CN5CCOCC5)c4)n3)ccc12 False

====

Consider the following molecules and their measured %Inh readings.
System: MUSK
Conditions: concentration: 1 μM,replicates: in singlicate; n = 1
Your answer is read as %, so omit the unit and give the number.

Example entries and their recorded answers appear below.
molecule=O=C1NCCc2[nH]c(-c3ccncc3)cc21 numericreadout=34
molecule="COc1cc(Nc2nccc(N3CCC(NC(=O)c4cccc(C#N)c4)C3)n2)cc(OC)c1OC (stereo not drawn) [GSK1379751]" numericreadout=0
molecule=Cn1ccc2ncnc(Oc3ccc(NC(=O)Nc4cnn(C(C)(C)C)c4)c(Cl)c3)c21 numericreadout=21

Suppose we examine the molecule Cl.Nc1n[nH]c2cc(-c3ccccn3)ccc12 [GSK2189892] ; what %Inh value has been reported? 0

// query: CN1CCN(CCNc2nc3cc(Oc4ccc(NC(=O)Nc5cc(C(F)(F)F)ccc5F)cc4)ccc3[nH]2)CC1.Cl.Cl [GW768504] 97.3

// query: CCn1c(-c2nonc2N)nc2cncc(CNC3CCNCC3)c21.Cl [SB-747651] 9

// query: C[C@@H](Oc1cc(-n2cnc3ccc(-c4ccncc4)cc32)sc1C(N)=O)c1ccccc1Cl [GSK483724] 28

// query: Cc1ccc2c(-c3ccnc(Nc4ccc(C(F)(F)F)cc4)n3)cnn2n1 [GW819776] 7

// query: OCCn1cc(-c2cnc3nnn(Cc4ccc5ncccc5c4)c3n2)cn1 0

====

Consider the following molecules and their measured %Inh readings.
Test system: DMPK
Settings: concentration: 1 μM,replicates: in singlicate; n = 1
Your answer is read as %, so omit the unit and give the number.

Suppose we examine the molecule Cl.c1ccc(Oc2ccc(Nc3ccnc4cc(-c5ccc(CN6CCNCC6)o5)ccc34)cc2)nc1 [GW567142] ; what %Inh value has been reported? 0

// query: CC(=O)Nc1nc2cnc(Nc3cc(NC(=O)c4cccc(CC(C)(C)C#N)c4)ccc3C)nc2s1 0

// query: O=C1NCCc2[nH]c(-c3ccncc3)cc21 13

====

Consider the following compounds and their measured %Inh readings.
Test system: SGK2
Conditions: concentration: 1 μM,replicates: in singlicate; n = 1
Your answer is read as %, so omit the unit and give the number.

Example entries and their recorded answers appear below.
entrysmiles=COC(=O)c1cccc(NC(=O)NC2CCN(c3ccnc(NCc4ccc(F)cc4)n3)CC2)c1 numericreadout=0
entrysmiles=Cc1ccc(CC(=O)N2CCc3cc(-c4cn(C)c5ncnc(N)c45)ccc32)cc1 numericreadout=0
entrysmiles=CN(c1ccc2c(c1)nc(NCc1ccc(F)cc1)n2C)c1ccnc(Nc2ccc(CS(C)(=O)=O)cc2)n1.Cl numericreadout=18
entrysmiles=CS(=O)(=O)Nc1ccc(-c2ccnc3[nH]ccc23)cc1 numericreadout=13
entrysmiles=CC(C)S(=O)(=O)N1CCN(Cc2ccc3c(c2)nc(NC(=O)c2ccsc2)n3C[C@H](O)c2ccccc2)CC1 numericreadout=0

Suppose we examine the compound Cn1ccc2ncnc(Oc3ccc(NC(=O)Nc4cnn(C(C)(C)C)c4)c(Cl)c3)c21 ; what %Inh value has been reported? 12

// query: Cc1ccn2nc(-c3ccc(F)cc3)c(-c3ccncc3)c2c1.Cl 0

====

System: CSF1R-autoinhibited
Conditions: concentration: 1 μM,replicates: in singlicate; n = 1
Consider the following molecules and their measured %Inh readings.
Your answer is read as %, so omit the unit and give the number.

Example entries and their recorded answers appear below.
molecule="Cl.c1ccc(Oc2ccc(Nc3ccnc4cc(-c5ccc(CN6CCNCC6)o5)ccc34)cc2)nc1 [GW567142]" unit=% numericreadout=0
molecule="Cc1ccn2nc(-c3ccc(F)cc3)c(-c3ccncc3)c2c1.Cl [GW457859]" unit=% numericreadout=25
molecule="c1ccc(Oc2ccc(Nc3ccnc4ccc(-c5ccccn5)cc34)cc2)cc1 [GW407034]" unit=% numericreadout=0
molecule=O=C(Nc1cccc(Oc2ccc3nccn3n2)c1)Nc1cccc(C(F)(F)F)c1 unit=% numericreadout=0
molecule="CN1CCN(CCNc2nc3cc(Oc4ccc(NC(=O)Nc5cc(C(F)(F)F)ccc5F)cc4)ccc3[nH]2)CC1.Cl.Cl [GW768504]" unit=% numericreadout=0

Suppose we examine the molecule COc1cc(Nc2nccc(N3CCC(NC(=O)c4cccc(C#N)c4)C3)n2)cc(OC)c1OC (centres unmarked) [GSK1379751] ; what %Inh value has been reported? 14

// query: CN(c1cccc(CNc2nc(Nc3ccc4c(c3)CC(=O)N4)ncc2C(F)(F)F)c1)S(C)(=O)=O 31

// query: Cc1ccc(C(=O)Nc2ccc(Oc3ccc4nc(NC(=O)C5CC5)cn4c3)c(F)c2)c(=O)n1-c1ccccc1 0

// query: FC(F)(F)c1cc(Br)cc(Nc2nccc(-c3cnn4ncccc34)n2)c1 [GW810578] 0

// query: CC(=O)Nc1nc2cnc(Nc3cc(NC(=O)c4cccc(CC(C)(C)C#N)c4)ccc3C)nc2s1 28
